The reported measurements were obtained from patent US20050014811A1.

# Assayed target: CDK4/CyclinD1 (Homo sapiens, UniProt P11802)
# Sequence (P11802 whole entry, species assumed): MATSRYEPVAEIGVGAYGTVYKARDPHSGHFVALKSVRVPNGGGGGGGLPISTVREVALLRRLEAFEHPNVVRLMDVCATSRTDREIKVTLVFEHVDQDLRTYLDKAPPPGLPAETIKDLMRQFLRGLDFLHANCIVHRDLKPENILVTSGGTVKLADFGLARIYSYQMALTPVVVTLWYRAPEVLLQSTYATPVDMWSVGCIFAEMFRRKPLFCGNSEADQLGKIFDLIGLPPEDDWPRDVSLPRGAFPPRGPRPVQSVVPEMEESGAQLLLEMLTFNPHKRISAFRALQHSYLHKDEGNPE
# Sequence (P24385 whole entry partner, species assumed): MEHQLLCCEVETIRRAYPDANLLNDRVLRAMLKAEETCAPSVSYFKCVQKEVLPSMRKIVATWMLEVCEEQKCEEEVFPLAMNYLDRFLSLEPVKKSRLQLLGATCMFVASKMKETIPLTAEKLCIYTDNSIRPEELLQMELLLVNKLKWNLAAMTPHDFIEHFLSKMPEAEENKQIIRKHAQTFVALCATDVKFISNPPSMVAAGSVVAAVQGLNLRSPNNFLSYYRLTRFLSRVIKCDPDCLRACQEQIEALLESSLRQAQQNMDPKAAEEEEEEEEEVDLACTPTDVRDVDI
# Protocol details: CDK4/CyclinD1 Flashplate assay, 96-well format, biotinylated-Rb peptide substrate
Measured quantity: IC50 (nM)
Provide the reading as a plain figure in nM.

"COC(=O)Nc1nc2cc(OS(=O)(=O)c3cccc(OC)c3)ccc2[nH]1" yielded IC50 of 1500

"COC(=O)CCC(=O)Nc1nc2cc(OS(=O)(=O)c3ccc(NC4CCCC4)cc3)ccc2[nH]1" yielded IC50 of 130

O=C(NCc1cccnc1)Nc1nc2cc(OS(=O)(=O)c3ccc(NCC4CCCO4)cc3)ccc2[nH]1 (centres unmarked) yielded IC50 of 300

"CC(C)N(CCNc1ccc(S(=O)(=O)Oc2ccc3[nH]c(NC(=O)C4CC4)nc3c2)cc1)C(C)C" yielded IC50 of 2000

"O=C(Nc1nc2cc(OS(=O)(=O)c3ccc(NCCCN4CCCC4=O)cc3)ccc2[nH]1)C1CC1" yielded IC50 of 2200

"O=C(Nc1nc2cc(OS(=O)(=O)c3ccc(NCc4cccnc4)cc3)ccc2[nH]1)C1CC1" yielded IC50 of 500

CNC(=O)Nc1nc2cc(OS(=O)(=O)c3ccc(NCC4CCCO4)cc3)ccc2[nH]1 (centres unmarked) yielded IC50 of 500

"CC[C@@H](CO)Nc1ccc(S(=O)(=O)Oc2ccc3[nH]c(NC(=O)C4CC4)nc3c2)cc1" yielded IC50 of 600
